Values from ChEMBL document CHEMBL1201862

system: U-251; test: NCI tumour cell line growth inhibition, 48 h
Activity calls are given as the source filed them. No stated cut-off is given here; in the data, active = GI50 up to about 1.1 µM and inactive = higher. Where a SMILES comes first, the peptide text is derived from it. [ ]: non-standard residue; d: D form. Aoe = N[C@@H](CCCCCC(=O)[C@@H]1CO1)C(=O)O
// one of active, inactive, no free text

Task item: Just curious, what result did "Cc1ccc(-n2cc(-c3ccc(Cl)cc3)c3c(N/N=C4\SCC(=O)N4C)ncnc32)cc1" get here?
Reply: inactive

Task item: Just curious, what result did "COc1cc2c(cc1OC)[Se]c1cc(OC)c(OC)cc1[Se]2" get here?
Reply: inactive

Task item: Just curious, what result did O=C1N[C@@H](Cc2ccccc2)C(=O)N2CCC[C@@H]2C(=O)N[C@@H](CCCCCC(=O)[C@@H]2CO2)C(=O)N[C@H]1Cc1ccccc1 [TRAPOXIN B] (cyclo(FF[dP][Aoe])) get here?
Reply: active

Task item: Just curious, what result did "CCc1nc(N)nc(N)c1-c1ccc([N+](C)(C)C)cc1" get here?
Reply: inactive

Task item: Just curious, what result did "CN(C)CCNC(=O)c1cc([N+](=O)[O-])cc2c1Oc1ccccc1O2" get here?
Reply: inactive

Task item: Just curious, what result did Cc1cccc(/N=C2\NC(=O)C(CC(=O)Nc3ccc(C)cc3C)S2)c1 (centres undefined) get here?
Reply: inactive

Task item: Just curious, what result did "O=C(O)c1ccccc1/C=C1/Nc2ccccc2C1=O" get here?
Reply: inactive

Task item: Just curious, what result did "COC(=O)c1ccccc1NCc1cc(O)ccc1O" get here?
Reply: inactive

Task item: Just curious, what result did "CC(C)c1cc2c(c(O)c1O)[C@@]1(C(=O)O)CCCC(C)(C)[C@@H]1CC2" get here?
Reply: inactive

----------
system: CAKI-1; assay: NCI tumour cell line growth inhibition, 48 h
Active and inactive are the calls of the source. No stated cut-off is given here; in the data, active = GI50 up to about 1.1 µM and inactive = higher.
assay.endpoint: GI50

Task item: Quick one: give measured GI50 for "COc1ccc2c(c1)[nH]c1c(/C=C/c3ccccc3)nccc12"
Reply: 14.5 µM (inactive)

Task item: Quick one: give measured GI50 for "c1ccc2c(c1)OCCOCCOc1ccccc1OCCO2"
Reply: 78 µM (inactive)

Task item: Quick one: give measured GI50 for "O=C(Nc1nc(C23CC4CC(CC(C4)C2)C3)cs1)c1cc2ccc(O)cc2oc1=O"
Reply: 19.6 µM (inactive)

Task item: Quick one: give measured GI50 for "O=C1C(c2c(O)[nH]c3ccccc23)=Nc2ccc(Br)cc21"
Reply: 56.2 µM (inactive)

Task item: Quick one: give measured GI50 for "c1ccc(CNCCCCNCCCNCc2ccccc2)cc1"
Reply: 13.6 µM (inactive)

Task item: Quick one: give measured GI50 for c1ccc2c(c1)SCCC2NC1=NCCO1 (configuration not stated)
Reply: > 100 µM (inactive)

Task item: Quick one: give measured GI50 for O=C1CC(c2cccc(Br)c2)n2cccc21 (configuration not stated)
Reply: 44.6 µM (inactive)

Task item: Quick one: give measured GI50 for O=C1C2CCN(CC2)C1CN1CCOCC1 (configuration not stated)
Reply: 2.16 µM (inactive)

Task item: Quick one: give measured GI50 for "O=C1[C@H](Cl)[C@H]2c3cc4ccccc4nc3Oc3ccccc3N12"
Reply: 38.7 µM (inactive)

Task item: Quick one: give measured GI50 for O=C1CSC2(CC(/C=C/c3ccccc3Br)=NN2c2cccc(S(=O)(=O)O)c2)N1c1nc2ccccc2s1 (configuration not stated)
Reply: > 100 µM (inactive)

Task item: Quick one: give measured GI50 for "CCc1cc(C)cc2[n+]1CC=C2C.[O-][Cl+3]([O-])([O-])[O-]"
Reply: 65.9 µM (inactive)

Task item: Quick one: give measured GI50 for "O=Cc1ccc(-c2ccc(S(=O)(=O)O)cc2)o1"
Reply: > 100 µM (inactive)

Task item: Quick one: give measured GI50 for CCOC(=O)c1c(-c2ccc(O)c(OC)c2)c(C#N)c(=S)n(C2OC(CO)C(O)C(O)C2O)c1-c1ccccc1 (configuration not stated)
Reply: > 100 µM (inactive)

Task item: Quick one: give measured GI50 for "COc1ccc2c(c1)CCc1c(-c3noc4c3CCc3cc(OC)ccc3-4)noc1-2"
Reply: > 100 µM (inactive)

Task item: Quick one: give measured GI50 for "CSC(SC)=C1CC(=O)Nc2ccccc2C1=O"
Reply: 34.1 µM (inactive)

Task item: Quick one: give measured GI50 for "O=C1CSSCC(=O)Nc2ccccc2N1"
Reply: > 100 µM (inactive)

Task item: Quick one: give measured GI50 for N=C(N)NCCCC(NCc1c2ccccc2[n+]([O-])c2ccccc12)C(=O)O (configuration not stated)
Reply: 60.8 µM (inactive)

Task item: Quick one: give measured GI50 for C=CCC1(O)CC(n2cc(C)c(=O)[nH]c2=O)OC1CO[Si](C)(C)C(C)(C)C (configuration not stated)
Reply: 54.6 µM (inactive)

Task item: Quick one: give measured GI50 for O=C1OC(c2ccccc2)=NC1c1ccccc1 (configuration not stated)
Reply: > 100 µM (inactive)

Task item: Quick one: give measured GI50 for COC1/C=C/C(C)C(C(C)C(OC)C(C)CCC(=O)C(C)C(C/C=C/N(C)C=O)OC)OC(=O)/C=C/C=C(\C)CC(OC)C(OC)C2=CC(=O)O[C@@H](C(C)C(OC)CC(OC)/C=C/C(C)C(O)C1)[C@H]2O (some centres not stated)
Reply: 0.0508 µM (active)

Task item: Quick one: give measured GI50 for "O=C(O)c1ccccc1/C=C1/Nc2ccccc2C1=O"
Reply: > 100 µM (inactive)

Task item: Quick one: give measured GI50 for "CN(C)CC(CN(C)C)c1ccccn1"
Reply: > 100 µM (inactive)

----------
tested on: NCI-H226; assay: NCI tumour cell line growth inhibition, 48 h
Calls of active or inactive are those of the source. Rule as the data show it: active = GI50 up to about 1.1 µM and inactive = higher.
Could you please report measured GI50 for the items listed next?

Task item: Quick one: give measured GI50 for CC1=C(O)C(=O)C2C(=O)C1C1Cc3ccccc3C21 (configuration not stated)
Reply: > 100 µM (inactive)

Task item: Quick one: give measured GI50 for CC(=O)O[C@H]1CC[C@H]2[C@@H]3CCC4C(C)=NNC(=O)C4[C@H]3CC[C@]12C (some centres not stated)
Reply: 39.5 µM (inactive)

Task item: Quick one: give measured GI50 for "CC(=O)CCC[C@H](C)[C@@H](O)[C@@H]1O[C@H]([C@@]2(C)CCC(=O)O2)C[C@H]1C(=O)O"
Reply: > 100 µM (inactive)

Task item: Quick one: give measured GI50 for C=CCC1(O)CC(n2cc(C)c(=O)[nH]c2=O)OC1CO[Si](C)(C)C(C)(C)C (configuration not stated)
Reply: 49.5 µM (inactive)

Task item: Quick one: give measured GI50 for "Cc1c(C(=O)NNc2ccccc2)n2c(S)nnc2c2ccccc12"
Reply: > 100 µM (inactive)

Task item: Quick one: give measured GI50 for "CCN(CC)C(=O)C/C(C)=N/NC(=O)c1ccncc1"
Reply: > 100 µM (inactive)

Task item: Quick one: give measured GI50 for "c1ccc2c3ccn4ccc5c6ccccc6[nH]c5c4c-3nc2c1"
Reply: 1.67 µM (inactive)

Task item: Quick one: give measured GI50 for "CCCCCCCCCCCCCCCCC1=CC(=O)C=C(OC)C1=O"
Reply: > 100 µM (inactive)

Task item: Quick one: give measured GI50 for "CN(C)CCN(c1ccccn1)c1ccccn1"
Reply: > 100 µM (inactive)

Task item: Quick one: give measured GI50 for CN(C)CCC(C(=O)C(C)(C)C)c1ccccn1 (configuration not stated)
Reply: > 100 µM (inactive)

Task item: Quick one: give measured GI50 for O=[N+]([O-])c1cccc(C2=NOC3CCCC23)c1 (configuration not stated)
Reply: > 100 µM (inactive)

Task item: Quick one: give measured GI50 for "C/C(=N\Nc1nc2cc(C(F)(F)F)ccc2s1)c1ccccn1"
Reply: 0.124 µM (active)

Task item: Quick one: give measured GI50 for Cc1ccc(NC(=O)C2C(=O)N(c3ccc(C)c(C)c3)C(=O)C2N=N)cc1C (configuration not stated)
Reply: > 100 µM (inactive)

Task item: Quick one: give measured GI50 for "O=C1C(c2c(O)[nH]c3ccccc23)=Nc2ccc(Br)cc21"
Reply: 18.5 µM (inactive)

Task item: Quick one: give measured GI50 for "Oc1c(Cl)c(Cl)c(O)c2c1CCCC2"
Reply: 1.88 µM (inactive)

Task item: Quick one: give measured GI50 for "O=C(Nc1nc(C23CC4CC(CC(C4)C2)C3)cs1)c1cc2ccc(O)cc2oc1=O"
Reply: 18 µM (inactive)

Task item: Quick one: give measured GI50 for "O=C(O)c1ccccc1/C=C1/Nc2ccccc2C1=O"
Reply: > 100 µM (inactive)

Task item: Quick one: give measured GI50 for "CN(C)CCNC(=O)c1cc([N+](=O)[O-])cc2c1Oc1ccccc1O2"
Reply: 12.6 µM (inactive)

Task item: Quick one: give measured GI50 for "CC1=CC(=O)c2c(C=O)c(O)c(O)c(C(C)C)c2C1=O"
Reply: 10.6 µM (inactive)

Task item: Quick one: give measured GI50 for CC(=O)[C@@]1(C)CC2(CCN(C)CC2)OC1C (some centres not stated)
Reply: > 100 µM (inactive)

Task item: Quick one: give measured GI50 for COC1OC(CBr)C(OC(c2ccccc2)(c2ccccc2)c2ccccc2)C(OC(c2ccccc2)(c2ccccc2)c2ccccc2)C1OC(c1ccccc1)(c1ccccc1)c1ccccc1 (configuration not stated)
Reply: 33.4 µM (inactive)

Task item: Quick one: give measured GI50 for "Nn1c(-c2ccccc2Cl)nc2ccccc2c1=O"
Reply: 57 µM (inactive)
